Tgt: UniProt P52333
Protocol Notes: JAK Caliper Enzyme Assay at 4 μM or 1 mM ATP
Assay type: biochemical
Condition Info: read-out: JAK3 (4 μM ATP) IC50; 4 μM ATP
Entries and their measured log10 IC50 follow.
Observed Property: log10 IC50 (log10 of the value in nM)

Molecule	Value Reported
C=CC(=O)N1CCC(Nc2cnc3[nH]cc(C(=O)N[C@@H]4CCC[C@H]4F)c3n2)CC1 [Example 237]	-0.70
C=CC(=O)N1C[C@@H](C#N)C[C@@H](Nc2ncnc3[nH]ccc23)C1 [Example 58]	0.40
C=CC(=O)N1CCC(Nc2cnc3[nH]cc(-c4cncnc4)c3n2)CC1 [Example 202]	-0.05
C=CC(=O)N1CC[C@H](Nc2cnc3[nH]cc(C(=O)NC(C)C)c3n2)[C@H](OC)C1 [Example 317]	-0.30
C=CC(=O)N1CCC(Nc2cnc3[nH]cc(C(=O)NC(C)C4CC4)c3n2)CC1 (centres unmarked) [Example 288]	-0.70
C=CC(=O)N1CCC(Nc2cnc3[nH]cc(C(=O)N(C)C4CC4)c3n2)CC1 [Example 286]	1.20
C=CC(=O)N1C[C@H](Nc2ncnc3[nH]cc(Cl)c23)CC[C@@H]1C [Example 18]	-0.70
C=CC(=O)N1CCC(Oc2cnc3[nH]cc(-c4cccc(C(=O)NC)c4)c3n2)CC1 [Example 227]	-0.05

====

Entries and their measured pIC50 follow.
Tgt: JAK3 enzyme (Homo sapiens (Human), UniProt P52333)
Sequence (P52333 whole entry, species assumed): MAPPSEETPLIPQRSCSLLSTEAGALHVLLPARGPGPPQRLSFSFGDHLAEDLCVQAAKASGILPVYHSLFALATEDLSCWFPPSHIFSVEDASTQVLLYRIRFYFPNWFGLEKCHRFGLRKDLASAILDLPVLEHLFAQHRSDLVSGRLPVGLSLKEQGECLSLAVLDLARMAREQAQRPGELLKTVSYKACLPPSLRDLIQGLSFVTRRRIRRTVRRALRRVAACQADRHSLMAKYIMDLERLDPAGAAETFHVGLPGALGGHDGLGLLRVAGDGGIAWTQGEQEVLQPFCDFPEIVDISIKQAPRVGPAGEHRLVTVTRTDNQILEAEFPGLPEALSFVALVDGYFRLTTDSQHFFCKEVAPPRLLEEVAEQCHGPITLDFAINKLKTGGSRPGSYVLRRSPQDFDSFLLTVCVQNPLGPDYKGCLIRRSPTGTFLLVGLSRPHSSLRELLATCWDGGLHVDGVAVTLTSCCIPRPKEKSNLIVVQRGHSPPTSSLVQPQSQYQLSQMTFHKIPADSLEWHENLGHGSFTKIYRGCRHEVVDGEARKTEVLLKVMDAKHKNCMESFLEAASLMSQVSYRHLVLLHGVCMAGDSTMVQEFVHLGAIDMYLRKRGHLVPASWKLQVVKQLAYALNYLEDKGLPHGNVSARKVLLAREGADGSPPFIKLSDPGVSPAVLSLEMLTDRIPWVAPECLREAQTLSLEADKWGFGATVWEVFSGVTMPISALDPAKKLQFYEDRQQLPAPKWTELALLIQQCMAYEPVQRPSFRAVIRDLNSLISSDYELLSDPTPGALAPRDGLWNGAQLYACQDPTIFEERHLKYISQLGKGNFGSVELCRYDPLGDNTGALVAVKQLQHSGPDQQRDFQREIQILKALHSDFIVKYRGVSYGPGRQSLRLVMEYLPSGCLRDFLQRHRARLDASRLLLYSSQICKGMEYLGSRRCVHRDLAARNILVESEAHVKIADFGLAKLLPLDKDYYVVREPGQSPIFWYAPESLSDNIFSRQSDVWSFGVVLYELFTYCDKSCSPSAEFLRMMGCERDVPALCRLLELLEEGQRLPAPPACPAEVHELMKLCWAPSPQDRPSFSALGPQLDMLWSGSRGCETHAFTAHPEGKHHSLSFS
Protocol Notes: JAK Caliper Enzyme Assay at 4 μM or 1 mM ATP
Type: biochemical
Condition Info: read-out: JAK3 (1 mM ATP) IC50; 1 mM ATP
pIC50: −log10 of the molar value.
Observed Property: pIC50

Compound	Tgt	Value Reported
C=CC(=O)N1CCC(Nc2cnc3[nH]cc(C(=O)NC4CC(F)C4)c3n2)CC1 (centres unmarked)	JAK3 enzyme (Homo sapiens (Human), UniProt P52333)	8.05
C=CC(=O)N1CCC(Oc2cnc3[nH]cc(-c4ccc(C#N)nc4)c3n2)CC1	JAK3 enzyme (Homo sapiens (Human), UniProt P52333)	5.99
C=CC(=O)N1CCN(c2cnc3[nH]cc(C(=O)NC(C)C)c3n2)C2(CC2)C1	JAK3 enzyme (Homo sapiens (Human), UniProt P52333)	6.74
C=CC(=O)N1CCC(Nc2cnc3[nH]cc(-c4ccnc(C)c4)c3n2)CC1	JAK3 enzyme (Homo sapiens (Human), UniProt P52333)	7.55
C=CC(=O)N1CCC(Nc2cnc3[nH]cc(C(=O)NC(C)(C)CC)c3n2)CC1	JAK3 enzyme (Homo sapiens (Human), UniProt P52333)	7.95
C=CC(=O)N1CCC(Oc2cnc3[nH]cc(-c4ccnc(F)c4)c3n2)CC1	JAK3 enzyme (Homo sapiens (Human), UniProt P52333)	6.90
C=CC(=O)N1CCC(Nc2cnc3[nH]cc(C(=O)N(C)C4CC4)c3n2)CC1	JAK3 enzyme (Homo sapiens (Human), UniProt P52333)	6.09
C=CC(=O)N1CCN(c2cnc3[nH]cc(C(=O)NC(C)C)c3n2)[C@@H](CC)C1	JAK3 enzyme (Homo sapiens (Human), UniProt P52333)	6.32

====

Tgt: JAK3 enzyme (Homo sapiens (Human), UniProt P52333)
Protocol Notes: JAK Caliper Enzyme Assay at 4 μM or 1 mM ATP
Format: biochemical
Condition Info: read-out: JAK3 (1 mM ATP) IC50; 1 mM ATP
Entries and their measured log10 of IC50 follow.
Observed Property: log10 of IC50 (log10 of the value in nM)

Molecule	Tgt	log10 of IC50
C#CCNC(=O)c1c[nH]c2ncc(NC3CCN(C(=O)C=C)CC3)nc12 [Example 343]	JAK3 enzyme (Homo sapiens (Human), UniProt P52333)	0.53
C=CC(=O)N1CCC(Nc2cnc3[nH]cc(C(=O)NCC(C)C)c3n2)CC1 [Example 272]	JAK3 enzyme (Homo sapiens (Human), UniProt P52333)	0.94
C=CC(=O)N1CCN(c2cnc3[nH]cc(C(=O)NC(C)C)c3n2)CC1(C)C [Example 293]	JAK3 enzyme (Homo sapiens (Human), UniProt P52333)	2.03
C=CC(=O)N1CCC(Nc2cnc3[nH]cc(C(=O)N[C@@H]4CC[C@H](F)C4)c3n2)CC1 [Example 255]	JAK3 enzyme (Homo sapiens (Human), UniProt P52333)	0.99
C=CC(=O)N1CCC(Nc2cnc3[nH]cc(C(=O)NC(C)C4CC4)c3n2)CC1 (centres unmarked) [Example 288]	JAK3 enzyme (Homo sapiens (Human), UniProt P52333)	0.89
C=CC(=O)N1C[C@@H](C#N)C[C@@H](Nc2ncnc3[nH]ccc23)C1 [Example 58]	JAK3 enzyme (Homo sapiens (Human), UniProt P52333)	2.56
C=CC(=O)N1CCC(Nc2cnc3[nH]cc(C(=O)NCC4CCCC4)c3n2)CC1 [Example 270]	JAK3 enzyme (Homo sapiens (Human), UniProt P52333)	0.93
C=CC(=O)N1CCC(C)(Nc2cnc3[nH]cc(C(=O)NC(C)C)c3n2)CC1 [Example 318]	JAK3 enzyme (Homo sapiens (Human), UniProt P52333)	1.33
C=CC(=O)N1CCC[C@@H](Nc2ncnc3[nH]cc(CCO)c23)C1 [Example 55]	JAK3 enzyme (Homo sapiens (Human), UniProt P52333)	2.31
C=CC(=O)N1CCC(Nc2cnc3[nH]cc(C(=O)N4CCCC4)c3n2)CC1 [Example 287]	JAK3 enzyme (Homo sapiens (Human), UniProt P52333)	2.54
C=CC(=O)N1C[C@@H](C)N(c2cnc3[nH]cc(C(=O)NC(C)C)c3n2)[C@@H](C)C1 [Example 328]	JAK3 enzyme (Homo sapiens (Human), UniProt P52333)	2.35
C=CC(=O)NC[C@@]12C[C@@H]1CN(c1cnc3[nH]cc(C(=O)NC(C)C)c3n1)C2 [Example 183]	JAK3 enzyme (Homo sapiens (Human), UniProt P52333)	2.90
C=CC(=O)N1CC[C@@H]2CCN(c3ncnc4[nH]cc(CCOC)c34)[C@@H]2C1 [Example 89]	JAK3 enzyme (Homo sapiens (Human), UniProt P52333)	3.60
C=CC(=O)N1C[C@H](C#N)C[C@@H](Nc2ncnc3[nH]ccc23)C1 [Example 6]	JAK3 enzyme (Homo sapiens (Human), UniProt P52333)	1.60
C=CC(=O)N1CCC(Nc2cnc3[nH]cc(-c4cccnc4)c3n2)CC1 [Example 205]	JAK3 enzyme (Homo sapiens (Human), UniProt P52333)	1.17
C=CC(=O)N1CCC(Oc2cnc3[nH]cc(-c4cnc(OC)nc4)c3n2)CC1 [Example 219]	JAK3 enzyme (Homo sapiens (Human), UniProt P52333)	2.18

====

Tgt: JAK3 enzyme (Homo sapiens (Human), UniProt P52333)
Protocol Notes: JAK Caliper Enzyme Assay at 4 μM or 1 mM ATP
Format: biochemical
Condition Info: read-out: JAK3 (4 μM ATP) IC50; 4 μM ATP
pIC50: −log10 of the molar value.
Record fulfilled whenever pIC50 is at 9 or higher; record not fulfilled when lower.

Molecule	Class Assignment
C=CC(=O)N1CCC(Nc2cnc3[nH]cc(C(=O)NC4CCCCC4(F)F)c3n2)CC1 (stereo not drawn)	fulfilled
C=CC(=O)N1CC[C@H]2CCN(c3ncnc4[nH]cc(C(C)=O)c34)[C@H]2C1	not fulfilled
C=CC(=O)N1CCC(Nc2cnc3[nH]cc(C(=O)NCCCC)c3n2)CC1	fulfilled
C=CC(=O)N1CCC(Nc2cnc3[nH]cc(C(=O)NC(C)(C)C)c3n2)CC1	fulfilled
C=CC(=O)N1C[C@@H](Nc2ncnc3[nH]ccc23)CC[C@@H]1CC	not fulfilled
C=CC(=O)N1CCC[C@H](Nc2ncnc3[nH]ccc23)C1	not fulfilled
C=CC(=O)N1CCC(Nc2cnc3[nH]cc(C(=O)NC(C)(C)CC)c3n2)CC1	fulfilled

====

Tgt: JAK3 enzyme (Homo sapiens (Human), UniProt P52333)
Protocol Notes: JAK Caliper Enzyme Assay at 4 μM or 1 mM ATP
Type: biochemical
Condition Info: read-out: JAK3 (1 mM ATP) IC50; 1 mM ATP
pIC50: −log10 of the molar value.

Compound	Tgt	Relation	pIC50
CN(C)C/C=C/C(=O)N1CC[C@@H]2CCN(c3ncnc4[nH]ccc34)[C@@H]2C1	JAK3 enzyme (Homo sapiens (Human), UniProt P52333)	=	5.28
C=CC(=O)N1CCC[C@@H](Nc2ncnc3[nH]cc(-c4ccccc4O)c23)C1	JAK3 enzyme (Homo sapiens (Human), UniProt P52333)	=	6.83
C=CC(=O)N1CCC(Nc2cnc3[nH]cc(C(=O)NC4CCC(F)(F)C4)c3n2)CC1 (stereo not drawn)	JAK3 enzyme (Homo sapiens (Human), UniProt P52333)	=	7.95
C=CC(=O)N1CCC(Nc2cnc3[nH]cc(C(=O)NCCCC)c3n2)CC1	JAK3 enzyme (Homo sapiens (Human), UniProt P52333)	=	8.14
C=CC(=O)N1CCN(c2cnc3[nH]cc(C(=O)NC(C)C)c3n2)C[C@@H]1C	JAK3 enzyme (Homo sapiens (Human), UniProt P52333)	=	7.05
C=CC(=O)N1CCN(c2cnc3[nH]cc(C(=O)NC(C)C)c3n2)[C@@H](C)C1	JAK3 enzyme (Homo sapiens (Human), UniProt P52333)	=	6.74
C=C(C(=O)N1CC[C@@H]2CCN(c3ncnc4[nH]ccc34)[C@@H]2C1)C(F)(F)F	JAK3 enzyme (Homo sapiens (Human), UniProt P52333)	=	7.03
C=CC(=O)N1CC2COCC(C1)N2c1cnc2[nH]cc(C(=O)NC(C)C)c2n1	JAK3 enzyme (Homo sapiens (Human), UniProt P52333)	=	5.51
C=CC(=O)N1CCC(Nc2cnc3[nH]cc(C(=O)NCC(C)(F)F)c3n2)CC1	JAK3 enzyme (Homo sapiens (Human), UniProt P52333)	=	7.89
C=CC(=O)N1CCC(Nc2cnc3[nH]cc(C(=O)N[C@H](C)CC)c3n2)CC1	JAK3 enzyme (Homo sapiens (Human), UniProt P52333)	=	8.15
C=CC(=O)N1CCC(Oc2cnc3[nH]cc(-c4ccc(C)nc4)c3n2)CC1	JAK3 enzyme (Homo sapiens (Human), UniProt P52333)	=	6.51
C=CC(=O)N1CCC[C@@H](Nc2ccnc3[nH]cc(C)c23)C1	JAK3 enzyme (Homo sapiens (Human), UniProt P52333)	=	6.22
C=CC(=O)N1CCC(Nc2cnc3[nH]cc(-c4cncc(C#N)c4)c3n2)CC1	JAK3 enzyme (Homo sapiens (Human), UniProt P52333)	=	7.71
C=CC(=O)N1CCC(Nc2cnc3[nH]cc(C(=O)NCC(C)(C)C)c3n2)CC1	JAK3 enzyme (Homo sapiens (Human), UniProt P52333)	=	7.83
C=CC(=O)N(C)C1CN(c2cnc3[nH]cc(C(=O)NC(C)C)c3n2)C1	JAK3 enzyme (Homo sapiens (Human), UniProt P52333)	=	7.57
C=CC(=O)N1CCC[C@@H](Nc2ncnc3[nH]cc(-c4ccc(C(=O)N(C)C)cc4)c23)C1	JAK3 enzyme (Homo sapiens (Human), UniProt P52333)	=	6.53
C=CC(=O)N1C[C@H](Nc2ncnc3[nH]ccc23)[C@H]2CC[C@@H]1C2	JAK3 enzyme (Homo sapiens (Human), UniProt P52333)	<	5.00
C=CC(=O)N1CCC(Nc2cnc3[nH]ccc3n2)CC1	JAK3 enzyme (Homo sapiens (Human), UniProt P52333)	=	6.04
C=CC(=O)N1CC(Nc2cnc3[nH]cc(C(=O)NC(C)C)c3n2)C1	JAK3 enzyme (Homo sapiens (Human), UniProt P52333)	=	8.06
C=CC(=O)N(C)C1CCN(c2cnc3[nH]cc(C(=O)NC(C)C)c3n2)CC1	JAK3 enzyme (Homo sapiens (Human), UniProt P52333)	=	5.32
O=C(/C=C/CF)N1CC[C@@H]2CCN(c3ncnc4[nH]ccc34)[C@@H]2C1	JAK3 enzyme (Homo sapiens (Human), UniProt P52333)	<	5.00
C=CC(=O)N1C[C@@H](F)C[C@@H](Nc2ncnc3[nH]ccc23)C1	JAK3 enzyme (Homo sapiens (Human), UniProt P52333)	=	7.08
C=CC(=O)N1CCC(Nc2cnc3[nH]cc(C(=O)N[C@@H](C)CC)c3n2)CC1	JAK3 enzyme (Homo sapiens (Human), UniProt P52333)	=	8.07
C=CC(=O)N1CC[C@H](F)[C@@H](Nc2ncnc3[nH]ccc23)C1	JAK3 enzyme (Homo sapiens (Human), UniProt P52333)	=	7.49
C=CC(=O)N1CCC(Oc2cnc3[nH]cc(-c4cccc(C(=O)NC)c4)c3n2)CC1	JAK3 enzyme (Homo sapiens (Human), UniProt P52333)	=	7.14
C=CC(=O)N1CCC(Nc2cnc3[nH]cc(C(=O)N[C@H](C(C)C)[C@@H](O)C(F)(F)F)c3n2)CC1	JAK3 enzyme (Homo sapiens (Human), UniProt P52333)	=	7.40
C=CC(=O)N1CCC(Nc2cnc3[nH]cc(C(=O)N[C@H]4CC[C@H](F)C4)c3n2)CC1	JAK3 enzyme (Homo sapiens (Human), UniProt P52333)	=	8.09
C=CC(=O)N1CCC(Nc2cnc3[nH]cc(C(=O)NCCC#N)c3n2)CC1	JAK3 enzyme (Homo sapiens (Human), UniProt P52333)	=	8.13
C=CC(=O)N1CCC(Oc2cnc3[nH]cc(-c4cncc(F)c4)c3n2)CC1	JAK3 enzyme (Homo sapiens (Human), UniProt P52333)	=	7.16
C=CC(=O)N1CCC(Nc2cnc3[nH]cc(C(=O)NC4CCCCC4)c3n2)CC1	JAK3 enzyme (Homo sapiens (Human), UniProt P52333)	=	8.20
C=CC(=O)N1C[C@H](Nc2ncnc3[nH]cc(Cl)c23)CC[C@@H]1C	JAK3 enzyme (Homo sapiens (Human), UniProt P52333)	=	7.79
C=CC(=O)N1CCC[C@@H](Nc2ncnc3[nH]cc(CCC#N)c23)C1	JAK3 enzyme (Homo sapiens (Human), UniProt P52333)	=	6.19
C=CC(=O)N1CCN(c2cnc3[nH]cc(C(=O)NC(C)C)c3n2)C[C@H]1C(C)C	JAK3 enzyme (Homo sapiens (Human), UniProt P52333)	=	6.63
